B1: ZNF449 (parent)
chain: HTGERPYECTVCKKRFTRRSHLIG

Variants of: B1
Assay: protein stability index of a GFP-peptide fusion (GPS, HEK-293T) (PSI 1-6); higher = more stable;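 further: lentivirally expressed fusions sorted by FACS into six bins by GFP to DsRed ratio, PSI derived from sequencing read proportions per bin multiplied by bin number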
Conditions: c terminus: a fixed tail appended
Assign class by protein stability index: not lower than 2 means met; lower than 2 means not met.

1. H1A = met
2. C9L = met
3. H21P = met
4. L22C = met
5. S20F = not met
6. C9W = met
7. K13C = not met
8. H1V = met
9. I23W = met
10. C12L = not met
11. S20H = met
12. C12D = met
13. R19I = not met
14. V11W = met
15. K14R = not met
16. R18I = met
17. S20Q = not met
18. L22V = met
19. K13I = met
20. F16R = met
21. S20E = met
